target_system: bovine trypsin (Bos taurus)
Construct: purchased Sigma
Sequence (P00760 24-246): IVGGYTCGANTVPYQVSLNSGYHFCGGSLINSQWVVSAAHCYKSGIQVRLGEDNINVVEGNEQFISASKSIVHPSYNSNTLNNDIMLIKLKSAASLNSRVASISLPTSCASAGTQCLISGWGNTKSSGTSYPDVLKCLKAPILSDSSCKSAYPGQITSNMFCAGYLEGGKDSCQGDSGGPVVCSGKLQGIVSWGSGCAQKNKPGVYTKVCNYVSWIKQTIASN
assay_summary: Determination of anti-trypsin activity (S-2222 coloring substrate, absorbance at 405 nm)
Type: biochemical
test_parameters: bovine trypsin 0.25 μg-protein/ml, S-2222 0.4 mM, Tris buffer pH 8.4, room temperature, 5 minutes; read-out: Inhibitory Action against Trypsin Activity (IC50 (nM))
Experimental: Determination of Anti-trypsin Activity Anti-trypsin activity was determined according to methods described by Taniuchi et al. [Thromb. Haemost., 79, 543 (1998)], which were partially modified. […] Optical absorbance was continuously determined at 405 nm with a 96-well microplate reader (Model 550, Biorad) and increase in the absorbance for 5 minutes was calculated as an indicator of trypsin activity. […]
Structures can show the parent of a compound that is named as a salt.
measurement_kind: IC50 (nM)

compound	observed
N=C(N)c1cccc(/C=C/CN(c2ccc(OC3CCN(C4=NCCC4)CC3)c(C(N)=O)c2)S(=O)(=O)CC(=O)O)c1 [Example 72, dihydrochloride]	4400
N=C(N)c1cccc(/C=C/CN(c2ccc(OC3CCN(C4=NCCC4)CC3)c(Cl)c2)S(=O)(=O)CC(=O)O)c1 [Example 54, dihydrochloride]	2200
CC/N=C/N1CCC(Oc2ccc(N(C/C=C/c3cccc(C(=N)N)c3)S(=O)(=O)CC(=O)O)cc2Cl)CC1 [Example 87, dihydrochloride]	3500

----------
target_system: human factor-Xa (Homo sapiens)
Construct: purchased Cosmobio Co., Ltd
Sequence (P00742 235-488 limits assumed): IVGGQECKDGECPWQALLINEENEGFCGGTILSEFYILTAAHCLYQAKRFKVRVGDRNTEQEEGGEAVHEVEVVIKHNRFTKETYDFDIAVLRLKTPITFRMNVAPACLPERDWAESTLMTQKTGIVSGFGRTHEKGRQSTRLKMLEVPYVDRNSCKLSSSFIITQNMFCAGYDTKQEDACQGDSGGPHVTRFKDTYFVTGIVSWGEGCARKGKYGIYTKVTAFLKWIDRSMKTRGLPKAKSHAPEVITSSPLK
Sequence (P00742 41-179 partner limits assumed): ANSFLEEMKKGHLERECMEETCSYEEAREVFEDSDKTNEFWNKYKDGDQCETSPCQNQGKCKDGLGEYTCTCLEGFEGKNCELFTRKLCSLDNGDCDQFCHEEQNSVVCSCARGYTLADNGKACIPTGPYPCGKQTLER
assay_summary: Determination of anti-factor Xa activity (S-2222 coloring substrate, absorbance at 405 nm)
Format: biochemical
test_parameters: human factor-Xa 0.25 unit/ml, S-2222 0.4 mM, Tris buffer pH 8.4, room temperature, 5 minutes; read-out: Inhibitory Action against Factor Xa Activity (IC50 (nM))
Counter-ions that a name gives are not always drawn.
measurement_kind: IC50 (nM)

molecule	observed
CCC(=N)N1CCC(Oc2ccc(N(C/C=C/c3cccc(C(=N)N)c3)S(=O)(=O)CC(=O)O)cc2Cl)CC1 [Example 50, dihydrochloride]	6.3
N=C(N)c1cccc(/C=C/CN(c2ccc(OC3CCN(CCc4ccccn4)CC3)c(Cl)c2)S(=O)(=O)CC(=O)O)c1 [Example 36, trihydrochloride]	13
N=C(N)c1cccc(/C=C/CN(c2ccc(OC3CCN(C4=NCCO4)CC3)c(Cl)c2)S(=O)(=O)CC(=O)O)c1 [Example 89, dihydrochloride]	11

----------
target_system: human factor-Xa (Homo sapiens)
Construct: purchased Cosmobio Co., Ltd
assay_summary: Determination of anti-factor Xa activity (S-2222 coloring substrate, absorbance at 405 nm)
Type: biochemical
test_parameters: human factor-Xa 0.25 unit/ml, S-2222 0.4 mM, Tris buffer pH 8.4, room temperature, 5 minutes; read-out: Inhibitory Action against Factor Xa Activity (IC50 (nM))
Where a name gives a salt, the structure may show the parent alone.

molecule	unit_descriptor	IC50
Cc1cc(N(C/C=C/c2cccc(C(=N)N)c2)S(=O)(=O)CC(=O)O)ccc1OC1CCN(C2=NCCC2)CC1 [Example 66, dihydrochloride]	nM	8.3
CCOC(=O)CS(=O)(=O)N(C/C=C/c1cccc(C(=N)N)c1)c1ccc(OC2CCN(C(=N)CC)CC2)c(Cl)c1 [Example 49, dihydrochloride]	nM	6.8
CCOC(=O)CS(=O)(=O)N(C/C=C/c1cccc(C(=N)N)c1)c1ccc(OC2CCN(C3=NCCC3)CC2)c(C)c1 [Example 65, dihydrochloride]	nM	12
